Molecular target: Growth hormone secretagogue receptor type 1 (Homo sapiens)
Sequence (Q92847 whole entry): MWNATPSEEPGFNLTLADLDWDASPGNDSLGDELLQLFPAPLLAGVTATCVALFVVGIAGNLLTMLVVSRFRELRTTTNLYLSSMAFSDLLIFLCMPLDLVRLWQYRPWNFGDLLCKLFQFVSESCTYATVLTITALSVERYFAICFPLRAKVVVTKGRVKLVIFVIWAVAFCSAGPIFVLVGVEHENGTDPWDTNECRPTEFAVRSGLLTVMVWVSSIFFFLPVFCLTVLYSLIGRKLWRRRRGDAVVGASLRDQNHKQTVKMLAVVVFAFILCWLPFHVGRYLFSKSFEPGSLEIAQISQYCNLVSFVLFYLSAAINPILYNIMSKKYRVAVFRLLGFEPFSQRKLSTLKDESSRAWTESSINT
Assay: Ability to inhibit ghrelin induced increase in intracellular [Ca2+] in CHO-K cells was determined by FLIPR assay
Assay type: functional, cell-based
MEASURE NAME: pIC50
When answering, recall that pIC50 equals minus log10 of the concentration in mol/L, and write that number alone.

Previously resolved entries follow.
CCN(CC)c1ccc(NC(=O)c2c(-c3c(Cl)cccc3Cl)noc2CCc2ccccc2OC)cc1    6.15
CCN(CC)c1ccc(NC(=O)c2c(-c3c(Cl)cccc3Cl)noc2C(C)C)cc1    6.06
CCN(CC)c1ccc(NC(=O)c2c(-c3c(Cl)cccc3Cl)noc2CCC2CCOCC2)cc1    6.84
CCN(CC)c1ccc(NC(=O)c2c(-c3c(Cl)cccc3Cl)noc2CCOC)cc1    6.94
CCN(CC)c1ccc(NC(=O)c2c(-c3c(Cl)cccc3Cl)noc2CCC2CCCCO2)cc1 (stereo not given)    6.99

Prompt: Query (compound): CCN(CC)[C@H]1CC[C@H](NC(=O)c2c(-c3c(Cl)cccc3Cl)noc2CCC2CCCO2)CC1 (stereo not given in full) ; field requested: pIC50
Completion: 6.99

Prompt: Can you check CCN(CC)[C@H]1CC[C@H](NC(=O)c2c(-c3c(Cl)cccc3Cl)noc2CCN2CCCCC2=O)CC1 next?
Completion: 6.72

Prompt: Can you check CCN(CC)c1ccc(NC(=O)c2c(-c3c(Cl)cccc3Cl)noc2CCN(C)C(C)=O)cc1 next?
Completion: 7.72

###

Target: Growth hormone secretagogue receptor type 1 (Homo sapiens)
Experiment: Ability to displace [125I]ghrelin from cloned human GHS-R expressed in CHO-K cells was determined (Kd of ghrelin is 0.4 nM)
Assay type: cell-based
MEASURE NAME: IC50 (nM)
Report the value in nM with no unit label.

Previously resolved entries follow.
CCN(CC)[C@H]1CC[C@H](NC(=O)c2c(-c3c(Cl)cccc3Cl)noc2CCN2CCCCC2=O)CC1    139
CCN(CC)c1ccc(NC(=O)c2c(-c3c(Cl)cccc3Cl)noc2CN2CCCC2=O)cc1    122
CCN(CC)c1ccc(NC(=O)c2c(-c3c(Cl)cccc3Cl)noc2CCC2OCCCO2)cc1    6
CCN(CC)c1ccc(NC(=O)c2c(-c3c(Cl)cccc3Cl)noc2CCc2ccccc2OC)cc1    389
CCN(CC)c1ccc(NC(=O)c2c(-c3c(Cl)cccc3Cl)noc2CCC2CCCCO2)cc1 (stereo unspecified)    39

Please look at the following molecule next.
Prompt: Query (molecule): CCN(CC)c1ccc(NC(=O)c2c(-c3c(Cl)cccc3Cl)noc2CCCO)cc1 ; field requested: IC50
Completion: 132

###

Target: Growth hormone secretagogue receptor type 1 (Rattus norvegicus, UniProt O08725)
Sequence (O08725 whole entry): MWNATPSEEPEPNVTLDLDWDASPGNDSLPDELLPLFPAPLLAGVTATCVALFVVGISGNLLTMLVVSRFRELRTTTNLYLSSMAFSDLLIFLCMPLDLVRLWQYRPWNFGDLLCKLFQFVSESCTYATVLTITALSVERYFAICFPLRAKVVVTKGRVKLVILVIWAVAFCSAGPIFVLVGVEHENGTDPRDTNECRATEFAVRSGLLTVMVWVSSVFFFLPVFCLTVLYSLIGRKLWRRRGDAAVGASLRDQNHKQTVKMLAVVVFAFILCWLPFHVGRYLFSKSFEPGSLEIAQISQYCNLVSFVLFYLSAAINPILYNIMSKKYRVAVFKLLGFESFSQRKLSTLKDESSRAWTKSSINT
Experiment: Inhibitory concentration against rat Growth hormone secretagogue receptor
MEASURE NAME: IC50 (nM)
Report the value in nM with no unit label.

Prompt: Query (compound): CCN(CC)[C@H]1CC[C@H](NC(=O)c2c(-c3c(Cl)cccc3Cl)noc2CCc2ccc3c(c2)OCO3)CC1 ; field requested: IC50
Completion: 12

###

Molecular target: Growth hormone secretagogue receptor type 1 (Homo sapiens)
Experiment: Ability to displace [125I]ghrelin from cloned human GHS-R expressed in CHO-K cells was determined (Kd of ghrelin is 0.4 nM)
Type: cell-based
Below, each of the compounds is paired with its reported IC50 value.
Could you write the number and then its unit?

Previously resolved entries follow.
CCN(CC)c1ccc(NC(=O)c2c(-c3c(Cl)cccc3Cl)noc2CCN2CCCCC2=O)cc1    9 nM
CCN(CC)c1ccc(NC(=O)c2c(-c3c(Cl)cccc3Cl)noc2CCN2CCN(C)C2=O)cc1    21 nM

Prompt: Find IC50 (Growth hormone secretagogue receptor type 1 (Homo sapiens)) for the entry CCN(CC)c1ccc(NC(=O)c2c(-c3c(Cl)cccc3Cl)noc2CCc2ccc3c(c2)OCO3)cc1
Completion: 47 nM

Prompt: Can you check CCN(CC)c1ccc(NC(=O)c2c(-c3c(Cl)cccc3Cl)noc2CCN(C)C(C)=O)cc1 next?
Completion: 34 nM

Prompt: Can you check CCCc1onc(-c2c(Cl)cccc2Cl)c1C(=O)Nc1ccc(N(CC)CC)cc1 next?
Completion: 131 nM

Prompt: Can you check CCN(CC)[C@H]1CC[C@H](NC(=O)c2c(-c3c(Cl)cccc3Cl)noc2CCc2ccc3c(c2)OCO3)CC1 next?
Completion: 32 nM

Prompt: Can you check CCN(CC)c1ccc(NC(=O)c2c(-c3c(Cl)cccc3Cl)noc2CCc2cccc3c2OCO3)cc1 next?
Completion: 162 nM

Prompt: Can you check CCN(CC)c1ccc(NC(=O)c2c(-c3c(Cl)cccc3Cl)noc2C(C)C)cc1 next?
Completion: 150 nM

Prompt: Can you check CCN(CC)c1ccc(NC(=O)c2c(-c3c(Cl)cccc3Cl)noc2CCOC)cc1 next?
Completion: 110 nM
